Target: Serotonin 3 (5-HT3) receptor (Rattus norvegicus, UniProt P35563+Q9JJ16)
Sequence (P35563 whole entry): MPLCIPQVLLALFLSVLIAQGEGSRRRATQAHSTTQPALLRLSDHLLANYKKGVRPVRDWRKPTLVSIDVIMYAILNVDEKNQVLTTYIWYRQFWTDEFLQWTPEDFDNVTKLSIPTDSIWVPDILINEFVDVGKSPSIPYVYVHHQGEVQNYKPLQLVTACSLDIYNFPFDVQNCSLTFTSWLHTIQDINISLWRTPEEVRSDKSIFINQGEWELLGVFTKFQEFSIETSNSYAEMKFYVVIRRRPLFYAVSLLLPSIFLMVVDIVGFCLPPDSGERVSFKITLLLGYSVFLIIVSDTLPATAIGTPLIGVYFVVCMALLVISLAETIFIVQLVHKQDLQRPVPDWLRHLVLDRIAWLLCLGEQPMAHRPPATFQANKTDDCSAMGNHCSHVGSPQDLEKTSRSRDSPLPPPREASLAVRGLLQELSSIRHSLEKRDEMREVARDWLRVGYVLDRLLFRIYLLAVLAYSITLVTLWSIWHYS
Sequence (Q9JJ16 whole entry): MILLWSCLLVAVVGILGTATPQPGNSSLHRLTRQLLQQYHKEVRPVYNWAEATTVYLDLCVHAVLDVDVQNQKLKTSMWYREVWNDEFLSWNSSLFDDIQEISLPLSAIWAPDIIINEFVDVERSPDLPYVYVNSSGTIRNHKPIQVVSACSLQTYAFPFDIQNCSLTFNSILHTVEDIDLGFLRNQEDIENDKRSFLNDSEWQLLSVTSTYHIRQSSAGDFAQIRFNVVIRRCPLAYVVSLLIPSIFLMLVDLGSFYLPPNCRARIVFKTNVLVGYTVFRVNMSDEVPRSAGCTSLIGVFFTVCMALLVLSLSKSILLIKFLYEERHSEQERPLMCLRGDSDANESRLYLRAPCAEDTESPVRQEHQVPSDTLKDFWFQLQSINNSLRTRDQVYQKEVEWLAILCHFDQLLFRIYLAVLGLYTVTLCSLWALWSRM
Assay: Inhibition of 5-HT (1 ug/mL) induced depolarization in rat vagus nerve (5-hydroxytryptamine 3 receptor antagonism)
Format: functional, tissue-based
Test Readout: pIC50
Conceptually, pIC50 converts a concentration in mol/L into minus its log10.

Query: Param item = CN1C2CCC1CC(NC(=O)c1cnn3ccccc13)C2 (stereo not drawn) ; retrieve measured pIC50.
Result: 6.98

Query: Entry O=C(N[C@@H]1CN2CC[C@@H]1C2)c1cnn2ccccc12 has what pIC50?
Result: 6.38

Query: Endpoint output: pIC50 of CN1[C@@H]2CC[C@H]1C[C@@H](OC(=O)c1c[nH]c3ccccc13)C2 [TROPISETRON] . Value?
Result: 8.85

Query: Fill in the blank: the reported pIC50 of Cc1nn2ccccc2c1C(=O)NC1CC2CCC(C1)N2C (stereo not drawn) is ____.
Result: 7.38

Query: Would you kindly share the measured pIC50 for O=C(N[C@H]1CN2CCC1C2)c1cnn2ccccc12 (stereo partly drawn) ?
Result: 6.91
